- assay explanation: chemical genetic growth profiling, strain panel (AID 1159580);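 note: tested at 20 µM; growth read once vehicle control cultures reached saturation at 30 °C; 1 = growth at the plate median or of vehicle wells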
- settings: S. cerevisiae deletion strains, growth OD, locus YOL006C, strain TOP1, active compounds read low
Out of some 5,500 compounds screened, about 2,000 (36%) were called active. About 18% were inconclusive and are not listed. This is one part of the list.
recorded endpoint: normalized growth
// keep it numeric: no unit symbol after the value

See these solved cases before continuing.
[[record]]
molecule = "Nc1c(Br)cc(Br)cc1CNC1CCC(O)CC1 (stereo not drawn)"
quantitative_result = 0.95

[[record]]
molecule = "O=C(O)c1cc(=O)c2c(OCC(O)COc3cccc4oc(C(=O)O)cc(=O)c34)cccc2o1"
quantitative_result = 1.01

[[record]]
molecule = "C[C@](N)(Cc1ccc(O)c(O)c1)C(=O)O"
quantitative_result = 0.529


What the record says about CN1c2ccccc2C(=O)NC1c1cc(Br)cs1 (stereo not drawn) : normalized growth is 1.06

What the record says about CN(Cc1cc(Br)cc(Br)c1N)C1CCCCC1 : normalized growth is 0.804

What the record says about COc1ccccc1-c1cc(=O)c2c(OC)cccc2o1 : normalized growth is 0.762

What the record says about CC(Cc1ccc(O)c(O)c1)(NN)C(=O)O (stereo not drawn) : normalized growth is 0.989

What the record says about O=C(Nc1cc(C(F)(F)F)cc(C(F)(F)F)c1)C(Sc1ccccn1)c1ccccc1 (stereo not drawn) : normalized growth is 0.997

====

- assay explanation: chemical genetic growth profiling, strain panel (AID 1159580);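 note: tested at 20 µM; growth read once vehicle control cultures reached saturation at 30 °C; 1 = growth at the plate median or of vehicle wells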
- settings: S. cerevisiae deletion strains, growth OD, locus YGR252W, strain gcn5, active compounds read low
In all, about 5,500 compounds went through this assay and about 2,000 (36%) were called active. Another 18% or so got no clear call; they are omitted. Some of the results follow.
normalized growth strictly under 1 means 1 (yes); at 1 or over means 0 (no).

Look over these answered cases.
[[record]]
compound = "CC(=O)C1=C(O)C2C3c4c[nH]c5cccc(c45)CC3C(C)(C)N2C1=O (configuration not stated)"
class_name = "0 (no)"

[[record]]
compound = "COc1ccc(C[C@H](N)C(=O)N[C@@H]2[C@@H](CO)OC(n3cnc4c(N(C)C)ncnc43)[C@@H]2O)cc1 (some centres not stated)"
class_name = "0 (no)"

[[record]]
compound = "NCc1ccc(S(N)(=O)=O)cc1"
class_name = "1 (yes)"

[[record]]
compound = "NCCCCN=C(N)N"
class_name = "0 (no)"

[[record]]
compound = "O=C(O)c1cc(O)c(O)c(O)c1"
class_name = "0 (no)"


Lookup: Could you please tell me whether normalized growth recorded for CCCSP(=O)(OCC)SCCC is less than 1?
Found: 1 (yes)

Lookup: Could you please tell me whether normalized growth recorded for CC1(C)C2CC(=O)O[C@@]3(C)C4=CC(=O)O[C@@H](c5ccoc5)[C@]4(C)CCC3[C@@]2(C)C=C[C@H]1O (some centres not stated) is less than 1?
Found: 1 (yes)

Lookup: Could you please tell me whether normalized growth recorded for CCOP(=S)(OCC)SCSP(=S)(OCC)OCC is less than 1?
Found: 1 (yes)

Lookup: Could you please tell me whether normalized growth recorded for C[C@@H]1C[C@@H]([C@H](O)CC2CC(=O)NC(=O)C2)C(=O)[C@@H](C)C1 is less than 1?
Found: 1 (yes)

Lookup: Could you please tell me whether normalized growth recorded for COc1ccc(-c2cc(C(F)F)nn2-c2ccc(S(N)(=O)=O)cc2)cc1F is less than 1?
Found: 0 (no)

Lookup: Could you please tell me whether normalized growth recorded for COc1cc(C(=O)O)cc(OC)c1O is less than 1?
Found: 0 (no)

Lookup: Could you please tell me whether normalized growth recorded for CCn1cc(C(=O)O)c(=O)c2cnc(N3CCCC3)nc21 is less than 1?
Found: 0 (no)

Lookup: Could you please tell me whether normalized growth recorded for CO[C@@H]1C[C@@H](C[C@H]2CC[C@H](C)[C@H]([C@@H](C)C(=O)O)O2)O[C@]2(O[C@](C)([C@H]3CC[C@@](C)(C4O[C@@H](C5O[C@@](O)(CO)[C@H](C)C[C@@H]5C)C[C@@H]4C)O3)C[C@H]2C)[C@@H]1C (some centres not stated) is less than 1?
Found: 0 (no)

Lookup: Could you please tell me whether normalized growth recorded for COc1c(C(=O)O)ccc2c1CCC(C)(C)O2 is less than 1?
Found: 0 (no)

Lookup: Could you please tell me whether normalized growth recorded for CCOc1ccc2c(c1)C(C)=CC(C)(C)N2 is less than 1?
Found: 0 (no)
